# Somatostatin receptor type 2 (Homo sapiens, UniProt P30874): pKi values follow
# Sequence (P30874 whole entry): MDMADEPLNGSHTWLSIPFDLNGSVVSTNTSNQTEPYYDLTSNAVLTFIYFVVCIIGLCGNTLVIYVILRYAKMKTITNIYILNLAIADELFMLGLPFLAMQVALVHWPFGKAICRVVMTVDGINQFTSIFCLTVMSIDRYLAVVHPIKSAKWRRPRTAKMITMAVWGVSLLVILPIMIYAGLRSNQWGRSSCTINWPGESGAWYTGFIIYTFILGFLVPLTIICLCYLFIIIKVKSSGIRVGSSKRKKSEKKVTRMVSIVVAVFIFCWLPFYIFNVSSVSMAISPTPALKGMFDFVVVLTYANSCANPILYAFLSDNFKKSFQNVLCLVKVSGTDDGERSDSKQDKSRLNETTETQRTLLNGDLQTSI
pKi: −log10 of the molar value. Square brackets hold non-standard residues; d marks the D form. Peptide text beside a SMILES is read from it. Phe(4-Cl) = N[C@@H](Cc1ccc(Cl)cc1)C(=O)O; d1Nal = N[C@H](Cc1cccc2ccccc12)C(=O)O; Abu = CC[C@H](N)C(=O)O
READOUT_TYPE: pKi

{"MOLECULE": "CC[C@H](NC(=O)[C@@H](N)Cc1ccc(Cl)cc1)C(=O)N[C@@H](Cc1ccc(O)cc1)C(=O)N[C@H](Cc1c[nH]c2ccccc12)C(=O)N[C@@H](CCCCN)C(=O)N[C@H](C(=O)N[C@@H](C)C(=O)N[C@H](Cc1ccccc1)C(N)=O)C(C)C [BIM 23067] (H-[Phe(4-Cl)][Abu]Y[dW]KVA[dF]-NH2)", "READOUT_TYPE": "pKi", "REPORTED_RESULT": 7.35}
{"MOLECULE": "CC(C)[C@H](NC(=O)[C@H](CCCCN)NC(=O)[C@@H](Cc1c[nH]c2ccccc12)NC(=O)[C@H](Cc1ccc(O)cc1)NC(=O)[C@H](Cc1ccccc1)NC(=O)[C@H](N)Cc1ccccc1)C(=O)N[C@@H](Cc1ccccc1)C(=O)N[C@H](Cc1cccc2ccccc12)C(N)=O [BIM 23056] (H-[dF]FY[dW]KVF[d1Nal]-NH2)", "READOUT_TYPE": "pKi", "REPORTED_RESULT": 6.00}

Source listed as BindingDB's records for doi:10.1210/endo.135.6.7988476.
